- assay_method_text: MultiTox-Fluor Cytotoxicity Assay - LYMP1-002 - Live Cells (AID 955);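 note: cells exposed to compound for 16 hours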
- test_context: LYMP1-002 lymphoblastoid live-cell protease fluorescence viability; series mostly up to 46.1 µM
Inconclusive results are not listed. Active and inactive are the calls of the source. Calls come from the whole dose curve; as a rule, active = well fitted cell-killing curve with a large enough effect; inconclusive = small, poorly fitted or top-dose-only effect, or effect the other way; inactive = flat fitted curve, though single readings scatter.
Reply using exactly one outcome from Yes = active, No = inactive

See these solved cases before continuing.
>  <compound>
O=c1ccc2ccccc2o1

>  <cat>
No

$$$$
>  <compound>
Nc1ccc(C(=O)O)cc1

>  <cat>
No

$$$$

What outcome does the record of this test show for O=C(O)CCCCC(=O)O ? No

What outcome does the record of this test show for CC(O)C(=O)O (configuration not stated) ? No

What outcome does the record of this test show for NC(=NCCCCCCN=C(N)/N=C(\N)Nc1ccc(Cl)cc1)/N=C(\N)Nc1ccc(Cl)cc1 ? Yes

---

- assay_method_text: Stat Signaling Pathway (AID 446);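 note: ME-180 cervical cancer cells given 40 pM IL-6 alongside compound; SIE-controlled beta-lactamase reporter measured as 460/530 nm FRET emission ratio; % is set by controls: 0 for no effect and ±100 for the full control effect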
- test_context: ME-180 (cervical carcinoma) SIE beta-lactamase reporter, IL-6 stimulated, 5 h; at 17.2 µM (top of the series)
Inconclusive results are not listed.
endpoint_name: activity, negative = inhibition (%)
Give bare numbers, in %.

Solved entries (count: 3):
>  <molecule>
CCCn1c(=O)[nH]c(=O)c2[nH]cnc21

>  <observed_measurement>
4.71

$$$$
>  <molecule>
Cc1ccnc(NS(=O)(=O)c2ccc(N)cc2)n1

>  <observed_measurement>
-12.6

$$$$
>  <molecule>
CC(=O)OCC(=O)[C@@]1(O)[C@H](C)C[C@H]2[C@@H]3CCC4=CC(=O)C=C[C@]4(C)[C@@]3(F)[C@@H](O)C[C@@]21C

>  <observed_measurement>
-9.24

$$$$

Answer for every listed entry: what is its activity, negative = inhibition? The entries follow.
1. CN1CCN(CCCN2c3ccccc3Sc3ccc(S(=O)(=O)N(C)C)cc32)CC1
2. CC(C)(C)CC(C)(C)c1ccc(OCCOCC[N+](C)(C)Cc2ccccc2)cc1
3. O=C1c2ccccc2C(=O)C1c1ccccc1

5.77
-2.12
3.06

Answer for every listed entry: what is its activity, negative = inhibition? The entries follow.
1. Cc1c(N(C)CS(=O)(=O)O)c(=O)n(-c2ccccc2)n1C
2. CCC(NC(C)C)C(O)c1ccc(O)c(O)c1 (configuration not stated)

1. -1.51
2. 1.25

Answer for every listed entry: what is its activity, negative = inhibition? The entries follow.
1. C1CCc2nnnn2CC1
2. CCOc1ccc(Cc2nccc3cc(OCC)c(OCC)cc23)cc1OCC
3. C[C@]12CC[C@H]3[C@@H](CCC4=CC(=O)CC[C@@]43C)[C@@H]1CC[C@@H]2C(=O)CO
4. C[C@H]1[C@H](NC(=O)/C(=N/OC(C)(C)C(=O)O)c2csc(N)n2)C(=O)N1S(=O)(=O)O (stereo in doubt)

1: 5.56; 2: -1.62; 3: 1.53; 4: 8.78

---

- System: CP315
- assay_method_text: qHTS profiling for inhibitors of Plasmodium falciparum proliferation (AID 504749);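 note: 0% = DMSO vehicle and full inhibition = artemisinin control; nearly all actives have a fitted effect of over 60% in size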
- test_context: P. falciparum in erythrocytes, SYBR Green DNA, 72 h; series mostly up to 28.7 µM
Inconclusive results are not listed. Active and inactive are the calls of the source. Calls follow the shape of the dose curve; as a rule, active = well fitted inhibition curve with a large enough effect; inconclusive = small, poorly fitted or top-dose-only effect; inactive = flat fitted curve, though single readings scatter.
endpoint_name: outcome

>  <compound>
O=C1c2ccccc2C(=O)C1c1ccccc1

>  <observed_measurement>
inactive

$$$$
>  <compound>
CCCCN1CCCC1C(=O)Nc1c(C)cc(C)cc1C (stereo not given)

>  <observed_measurement>
inactive

$$$$
>  <compound>
O=C1OC(c2ccc(O)cc2)(c2ccc(O)cc2)c2ccccc21

>  <observed_measurement>
inactive

$$$$
>  <compound>
Oc1c(Cl)cc(Cl)cc1Sc1cc(Cl)cc(Cl)c1O

>  <observed_measurement>
inactive

$$$$
>  <compound>
NCCCC[C@H](N[C@@H](CCc1ccccc1)C(=O)O)C(=O)N1CCC[C@H]1C(=O)O

>  <observed_measurement>
inactive

$$$$
>  <compound>
CC(=O)N/N=C/c1ccc([N+](=O)[O-])o1

>  <observed_measurement>
inactive

$$$$
>  <compound>
COC(=O)[C@H]1[C@H]2C[C@H]3c4[nH]c5ccccc5c4CCN3C[C@H]2CC[C@@H]1O

>  <observed_measurement>
inactive

$$$$
>  <compound>
CC(O)C(=O)O (stereo not given)

>  <observed_measurement>
inactive

$$$$
>  <compound>
CC(=O)OCC(=O)NCCCOc1cccc(CN2CCCCC2)c1

>  <observed_measurement>
inactive

$$$$
>  <compound>
CC(C)(CO)[C@@H](O)C(=O)NCCCO

>  <observed_measurement>
inactive

$$$$

Answer for every listed entry: what is its outcome? The entries follow.
1. Nc1ccc(C(=O)O)cc1
2. CC(C)(Oc1ccc(Cl)cc1)C(=O)O
3. CNCCC(Oc1ccccc1C)c1ccccc1 (stereo not given)

1: inactive; 2: inactive; 3: inactive
